Biological target: T1, human CD22-Fc fusion protein (human, UniProt P20273 20-687, limits assumed)
T1 construct: also called recombinant CD22-Fc fusion protein; not shown: Fc part
T1 sequence (looked up): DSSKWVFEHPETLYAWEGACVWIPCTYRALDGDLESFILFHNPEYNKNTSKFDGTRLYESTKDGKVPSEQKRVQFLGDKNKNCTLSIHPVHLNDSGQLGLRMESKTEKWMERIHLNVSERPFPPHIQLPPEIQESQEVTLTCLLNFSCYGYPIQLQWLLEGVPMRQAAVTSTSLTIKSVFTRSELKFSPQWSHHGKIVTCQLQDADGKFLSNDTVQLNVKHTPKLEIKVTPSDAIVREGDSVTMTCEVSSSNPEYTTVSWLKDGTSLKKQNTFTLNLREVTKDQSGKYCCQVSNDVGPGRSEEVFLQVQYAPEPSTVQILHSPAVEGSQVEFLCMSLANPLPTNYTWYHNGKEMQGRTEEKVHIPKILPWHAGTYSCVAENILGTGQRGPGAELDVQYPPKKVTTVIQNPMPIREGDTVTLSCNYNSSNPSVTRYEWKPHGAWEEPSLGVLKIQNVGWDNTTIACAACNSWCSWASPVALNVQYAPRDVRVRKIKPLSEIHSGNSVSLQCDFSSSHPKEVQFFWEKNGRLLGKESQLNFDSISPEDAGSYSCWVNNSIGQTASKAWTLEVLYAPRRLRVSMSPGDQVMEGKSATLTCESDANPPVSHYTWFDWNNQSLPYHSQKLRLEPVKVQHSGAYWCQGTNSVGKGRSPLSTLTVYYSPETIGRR
Assay: SPR Biacore T200; CD22-Fc captured on Protein G chip, scFv as analyte;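 also: run in 1×HBST buffer, with the response of reference flow cell 1 subtracted from the CD22 capture cell and kinetics fitted in Biacore T200 evaluation software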
Recorded kon, one value per entry.
The answer is to be given in M⁻¹ s⁻¹; state only the numeric part.

Consider the worked cases shown below.
Quick one: kon for EP160-D02 scFv (scFv, VH-VL orientation; made in E. coli, His-tag purified; also called EP160-D2; not shown: C-terminal flag and 6xHIS tag) scFv: QVQLVQSGAEVKKPGASVKVSCKASGYTFTSYGISWVRQAPGQGLEWMGWISAYNGNTNYAQKLQGRVTMTTDTSTSTAYMELRSLRSDDTAVYYCARDPLEPLESDYWGQGTLVTVSSGGGGSGGGGSGGGGSEIVMTQSPATLSVSPGEGVTLSCRASQSVSSNLAWYQQRPGQAPRLLIYGASIKATDVPDRFSGGGSGTDFSLSITNLQSEDFAVYYCQQYHTWPPVTFGGGTKVEIK ?
5.51e+06

Quick one: kon for EP35-F7 scFv (scFv, also called EP35-F07; not shown: C-terminal flag and 6xHIS tag) scFv: EVQLVQSGGGVVQPGRSLRLSCAASGFTFSSYGMHWVRQAPGKGLEWVAVIWYDGSNKYYADSVKGRFTISRDNSKNTLYLQMNSLRAEDTAVYYCARDGWKGFDYWGQGTTVTVSSGGGGSGGGGSGGGGSEIVLTQSPATLSVSPGEGVTLSCRASQSVSSNLAWYQQRPGQAPRLLIYGASIKATDVPDRFSGGGSGTDFTLSISNLQSEDFAVYYCQQYHTWPPVTFGGGTKVEIK ?
86900

Next:
Quick one: kon for EP160-E03 scFv (scFv, VH-VL orientation; not shown: C-terminal flag and 6xHIS tag) scFv: EVQLVQSGGGVVQPGKSLRLSCAASGFTFSSYGMHWVRQAPGKGLEWVAVIWYDGSNKYYADSVKGRFTISRDNSKNTLYLQMNSLRAEDTAVYYCARDGWTGFDYWGQGTTVTVSSGGGGSGGGGSGGGGSEIVLTQSPATLSVSPGEGVTLSCRASQSVSSNLAWYQQRPGQAPRLLIYGASIKATDVPDRFSGGGSGTDFTLSISNLQSEDFAVYYCQQYHTWPPVTFGGGTKVEIK ?
297000
